target: Regulator of G-protein signaling 16 (Homo sapiens) + Guanine nucleotide-binding protein G(o) subunit alpha (Homo sapiens) (UniProt O15492+P09471); test: RGS16-Galphao interaction inhibitors and enhancers – biochemical, human proteins, multiplexed bead flow cytometry, primary screen (AID 1441); settings: bead-based flow cytometry RGS16-Galphao binding, fluorescence; at 10 µM; actives lie on both sides;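 also: Galphao activated by GDP with aluminum fluoride before binding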
Sequence (O15492 whole entry, looked up): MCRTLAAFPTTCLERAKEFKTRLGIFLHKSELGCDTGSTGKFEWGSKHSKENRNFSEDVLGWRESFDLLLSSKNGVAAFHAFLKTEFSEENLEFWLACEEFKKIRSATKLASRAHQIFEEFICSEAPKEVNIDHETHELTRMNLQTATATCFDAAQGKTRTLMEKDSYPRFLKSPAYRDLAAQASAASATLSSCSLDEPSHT
Sequence (P09471 whole entry, looked up): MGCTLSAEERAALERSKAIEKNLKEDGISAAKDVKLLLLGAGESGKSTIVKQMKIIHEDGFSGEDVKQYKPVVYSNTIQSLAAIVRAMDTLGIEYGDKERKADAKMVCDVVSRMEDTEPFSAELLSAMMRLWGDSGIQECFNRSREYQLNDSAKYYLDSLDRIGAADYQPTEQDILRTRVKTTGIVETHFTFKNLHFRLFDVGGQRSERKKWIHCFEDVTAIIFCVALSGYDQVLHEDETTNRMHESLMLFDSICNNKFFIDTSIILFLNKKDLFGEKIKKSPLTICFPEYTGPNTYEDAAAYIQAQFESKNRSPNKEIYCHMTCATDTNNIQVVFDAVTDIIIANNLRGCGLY
Screen size: about 220,000 compounds; about 830 (0.38%) were called active. No rule for the calls is given here. This excerpt belongs to a sample that is enriched for actives.
Log the outcome using a class from 1 = active, 0 = inactive

Here are 3 molecules together with their reported answers.
1. CCOC(=O)c1c(-c2ccccc2)oc2ccc(OC(=O)N(C)C)cc12    0
2. CC(C)N(CC#CCC1(O)c2ccccc2-c2ccccc21)C(C)C    1
3. O=[N+]([O-])c1ccc(C2C3C(c4ccccc4)=NC4(CCCCC4)N32)cc1 (centres undefined)    0

Field: next molecule
Tell me the assay call for COc1ccc(CN2C(=O)NC(=O)/C(=C\c3ccc(OC)c(OC)c3OC)C2=O)cc1 please. 0

Reference for the values: PubChem BioAssay AID1441
